method.summary: inhibition of 3D7 malaria parasite growth – strain 3D7 (AID 2306);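 note: 0% = DMSO wells and 100% = chloroquine plus artemisinin control wells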
assay.setup: P. falciparum 3D7 erythrocytic growth, LDH absorbance, 72 h; at 2 µM; stronger effect = higher value
Examples of compounds with documented growth inhibition follow.
Answer format: numeric, % implied, no suffix.

Below: 6 compounds and their reported growth inhibition.
Nc1c(I)cc(C(=O)Nc2ccc3nc4c(c(N)c3c2)CCCC4)cc1I; 100
CCCOc1ccc(N2C(N)=NC(N)=NC2(C)C)cc1; 97
CCn1cc(CN2C(=O)C(c3ccccc3)(c3ccccc3)N=C2N)cn1; 95
Cc1cc(NCCCOc2ccc(Cl)cc2)nc(NCc2ccccc2)n1; 95
CSC1=NC(=Nc2ccccc2C)C2(CCC(C(C)(C)C)CC2)N1c1ccccc1Cl (stereo not given); 96
CC(C)CNCc1cccc(-c2ccc(CNc3ccc4ncccc4c3)cc2)c1; 94

Endpoint output: growth inhibition of O=C(NCCCc1ccccc1)c1csc(C2CCCN(C(=O)c3ccc(O)c(-c4ccccc4)c3)C2)n1 (stereo not given) . Value?
97

Any idea what growth inhibition was measured for Cc1cc(N[C@@H](Cc2ccccc2)C(=O)NCCc2ccccc2)nc(NCc2ccccc2C)n1 ?
99

Endpoint output: growth inhibition of O=c1cc(NCCCNCc2cc(C(F)(F)F)ccc2Cl)[nH]c2ccccc12 . Value?
90

# lookup: growth inhibition of Cc1cccc2[nH]c(-c3cccc(-c4ccc(NC(=O)CS(C)(=O)=O)cc4)c3)nc12
85
